molecular target: hERG (KCNH2) (Homo sapiens, UniProt Q12809); assay: Inhibition of human ERG at 10 uM relative to control
Sequence (Q12809 whole entry): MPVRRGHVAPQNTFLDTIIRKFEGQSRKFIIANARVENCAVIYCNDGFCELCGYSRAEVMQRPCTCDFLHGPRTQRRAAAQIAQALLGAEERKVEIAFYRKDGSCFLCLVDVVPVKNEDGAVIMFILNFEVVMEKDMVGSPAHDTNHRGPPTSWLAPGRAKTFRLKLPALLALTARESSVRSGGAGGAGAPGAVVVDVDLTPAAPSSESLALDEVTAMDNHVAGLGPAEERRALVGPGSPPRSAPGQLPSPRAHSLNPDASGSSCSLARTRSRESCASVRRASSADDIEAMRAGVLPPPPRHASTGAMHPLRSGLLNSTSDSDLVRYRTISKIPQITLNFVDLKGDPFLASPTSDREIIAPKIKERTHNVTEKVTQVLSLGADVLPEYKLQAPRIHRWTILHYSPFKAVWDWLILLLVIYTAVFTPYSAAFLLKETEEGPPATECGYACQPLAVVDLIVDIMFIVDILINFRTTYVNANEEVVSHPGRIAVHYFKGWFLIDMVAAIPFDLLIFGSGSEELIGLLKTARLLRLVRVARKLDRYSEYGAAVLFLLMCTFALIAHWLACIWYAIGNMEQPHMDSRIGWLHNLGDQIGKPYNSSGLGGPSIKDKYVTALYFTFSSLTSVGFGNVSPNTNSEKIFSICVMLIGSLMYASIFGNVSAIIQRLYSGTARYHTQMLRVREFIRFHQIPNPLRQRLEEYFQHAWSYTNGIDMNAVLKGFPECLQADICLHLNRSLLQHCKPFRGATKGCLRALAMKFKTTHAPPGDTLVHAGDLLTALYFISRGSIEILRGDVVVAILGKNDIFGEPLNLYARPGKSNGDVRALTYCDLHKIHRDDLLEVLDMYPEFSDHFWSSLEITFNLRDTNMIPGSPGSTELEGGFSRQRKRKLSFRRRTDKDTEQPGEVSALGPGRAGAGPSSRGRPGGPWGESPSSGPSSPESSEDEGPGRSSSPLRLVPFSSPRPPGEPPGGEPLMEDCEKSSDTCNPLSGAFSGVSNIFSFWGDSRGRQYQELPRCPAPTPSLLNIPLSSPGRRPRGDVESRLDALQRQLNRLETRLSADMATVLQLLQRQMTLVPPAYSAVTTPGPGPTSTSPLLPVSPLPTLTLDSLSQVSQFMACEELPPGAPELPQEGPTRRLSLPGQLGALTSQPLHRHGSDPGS
Task for the reader: assign each of the following molecules its reported inhibition at 10 µM.
Give your result in % as a bare value.

Could you share which inhibition at 10 µM value was measured for Cc1cncn1CCCNC(=S)Nc1ccc(/C=C/C(=O)N2CCN(CCN)CC2)cc1 ?
7.2

Can you check COc1ccc(NC(=S)NCCCn2cncc2C)cc1OCCCC1CCNCC1 next?
25.6

Can you check COc1ccc(NC(=S)NCCCn2cncc2C)cc1OCCC1CCNCC1 next?
14.9

Can you check COc1ccc(NC(=S)NCCCn2cncc2C)cc1OCCCN next?
8.8

Can you check COc1ccc(NC(=S)NCCCn2cncc2C)cc1OCCCCC1CCNCC1 next?
35.1

Can you check COc1ccc(NC(=S)NCCCn2cncc2C)cc1OCCN next?
15.3

Can you check Cc1cncn1CCCNC(=S)Nc1ccc(OCC(=O)NC2CCN(CCN)CC2)cc1 next?
19.9

Can you check COc1ccc(NC(=S)NCCCn2cncc2C)cc1OCCCCN next?
2.8

* * *

Task for the reader: assign each of the following compounds its reported Activity.
system: HT-22; experiment: Cytotoxicity against mouse HT22 cells assessed as decrease in cell viability at 10 uM by MTT assay relative to control; type: cell-based; conditions: ht-22, 10 µM
Give your result in % as a bare value.

Could you share which Activity value was measured for Cc1cncn1CCCNC(=S)Nc1ccc(/C=C/C(=O)N2CCN(CCN)CC2)cc1 ?
100

Can you check COc1ccc(NC(=S)NCCCn2cncc2C)cc1OCCCCC1CCNCC1 next?
100

Can you check COc1ccc(NC(=S)NCCCn2cncc2C)cc1OCCC1CCNCC1 next?
100

Can you check COc1ccc(NC(=S)NCCCn2cncc2C)cc1OCCN next?
100

Can you check COc1ccc(NC(=S)NCCCn2cncc2C)cc1OCCCCN next?
100

Can you check COc1ccc(NC(=S)NCCCn2cncc2C)cc1OCCCN next?
100

Can you check Cc1cncn1CCCNC(=S)Nc1ccc(OCC(=O)NC2CCN(CCN)CC2)cc1 next?
100

Can you check COc1ccc(NC(=S)NCCCn2cncc2C)cc1OCCCC1CCNCC1 next?
100
